test: Pharmacokinetics and tissue levels upon oral administration; conditions: lungs, brain, liver (many tissues), po, 120 mg/kg

>  <SMILES TEXT>
CCCCCCCCc1ccc([C@H]2CCN[C@@H]2CO)cc1.Cl

>  <concentration at 5 days>
> 100 µM

$$$$

###

assay: in vivo; conditions: po

>  <SMILES TEXT>
CCCCCCCCc1ccc([C@H]2CCN[C@@H]2CO)cc1.Cl

>  <half-life / h>
10.6

$$$$
